Data origin, for the record: the supplement of paper PMC10567573

B1: ZNF449 (parent)
chain: TLHQRTHTEERPFKCNYCGKSFRQ

Variants of: B1
method: protein stability index of a GFP-peptide fusion (GPS, HEK-293T) (PSI 1-6); higher = more stable;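 note: lentivirally expressed fusions sorted by FACS into six bins by GFP to DsRed ratio, PSI derived from sequencing read proportions per bin multiplied by bin number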
run conditions: c terminus: a fixed tail appended
For each entry below, report its protein stability index value.
Give bare numbers.

Use the examples below as a reference point.
INSERT INTO results (mutation_annotation, recorded_number) VALUES
  ('E9D', 2.15),
  ('K14F', 2.85);

Here are 4 variants. What values of protein stability index were reported for them?
1. E10S
2. F22Q
3. H7P
4. L2N

1. 2.1
2. 2.88
3. 2.43
4. 2.59

Below is a list of variants. For each, state its recorded protein stability index.
1. Y17M
2. K14Q
3. K14P
4. L2W

[2.4, 2.22, 2.83, 1.83]

Count: 2. Required value per item: protein stability index.
1. N16V
2. S21H

1. 2.86
2. 2.58
